Every entry's value here was drawn from the supplement of paper PMC12297408.

Tested on: Plasmodium falciparum NF54/iGP1_RE9H ulg8 stage V gametocytes
assay_details: gametocyte viability (luciferase signal relative to DMSO control) (% of DMSO control); higher = less gametocytocidal activity, active = 50 or less
cond: concentration: 10 µM; exposure time: 72 h
Structures can show the parent of a compound that is named as a salt. Screen size: about 1,300 compounds; about 40 (3%) showed activity. The sample as a whole holds a higher share of actives than the screen did.
Items are presented alongside their recorded gametocyte viability.
Would you mind answering with just the numeric figure?

Need gametocyte viability, item "O=C1CN(/N=C/c2ccc([N+](=O)[O-])o2)C(=O)N1"
82.5

# gametocyte viability lookup, item "CC(C)(S)[C@@H](N)C(=O)O"
93.1

Quick check: gametocyte viability of O=C(N/N=C/c1ccc([N+](=O)[O-])o1)c1ccc(O)cc1 [Nifuroxazide] ?
30.6

Consider the molecule "NC(=O)N/N=C/c1ccc([N+](=O)[O-])o1" and give its measured gametocyte viability.
89.1

Entry under review: CCCCCCC[N+](CC)(CC)CCCCc1ccc(Cl)cc1 [Clofilium tosylate] . Reported gametocyte viability?
47.8

So what's the measured gametocyte viability for this one? CCN(CC)CCNC(C(=O)OCCC(C)C)c1ccccc1 (centres undefined) [Camylofine chlorhydrate]
85.5

GET /values?readout=gametocyte viability&item= "COc1cc2ncnc(Nc3ccc(F)c(Cl)c3)c2cc1OCCCN1CCOCC1"
85.9

// returns reported gametocyte viability for input "CCOC(=O)N1CCC(=C2c3ccc(Cl)cc3CCc3cccnc32)CC1"
87.7

Form field: reported gametocyte viability of "Cc1ccc(C)c(OCCCC(C)(C)C(=O)O)c1"
88.3
